- tgt: Androgen Receptor (AR) protein (Homo sapiens, UniProt P10275, T878A)
- Construct: endogenous in cells; host or cells: LNCaP
- Sequence (P10275 whole entry T878A): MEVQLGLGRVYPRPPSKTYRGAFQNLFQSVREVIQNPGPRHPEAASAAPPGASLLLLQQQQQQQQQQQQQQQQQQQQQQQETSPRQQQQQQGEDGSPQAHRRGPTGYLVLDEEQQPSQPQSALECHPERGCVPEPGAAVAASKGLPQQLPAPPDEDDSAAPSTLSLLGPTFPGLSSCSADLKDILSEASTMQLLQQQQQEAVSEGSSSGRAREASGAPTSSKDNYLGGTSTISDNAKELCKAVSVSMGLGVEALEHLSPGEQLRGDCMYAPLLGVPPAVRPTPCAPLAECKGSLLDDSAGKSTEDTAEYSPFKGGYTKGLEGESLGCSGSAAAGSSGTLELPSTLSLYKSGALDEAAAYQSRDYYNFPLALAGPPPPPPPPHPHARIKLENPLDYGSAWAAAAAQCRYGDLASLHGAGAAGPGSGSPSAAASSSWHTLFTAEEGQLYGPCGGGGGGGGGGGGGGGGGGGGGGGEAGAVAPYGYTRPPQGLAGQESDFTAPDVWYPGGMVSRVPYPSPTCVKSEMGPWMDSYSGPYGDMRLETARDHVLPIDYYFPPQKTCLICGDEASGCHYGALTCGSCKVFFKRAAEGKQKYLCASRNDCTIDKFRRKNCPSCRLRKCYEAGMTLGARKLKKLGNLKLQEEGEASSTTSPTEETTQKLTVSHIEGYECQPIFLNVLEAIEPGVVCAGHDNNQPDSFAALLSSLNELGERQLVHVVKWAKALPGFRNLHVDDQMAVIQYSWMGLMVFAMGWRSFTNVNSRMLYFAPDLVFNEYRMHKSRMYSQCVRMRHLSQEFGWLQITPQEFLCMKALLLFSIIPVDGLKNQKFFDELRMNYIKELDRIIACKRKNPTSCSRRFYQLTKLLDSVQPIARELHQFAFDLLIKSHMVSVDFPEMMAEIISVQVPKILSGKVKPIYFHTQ
- Sequence (Q96SW2 whole entry partner): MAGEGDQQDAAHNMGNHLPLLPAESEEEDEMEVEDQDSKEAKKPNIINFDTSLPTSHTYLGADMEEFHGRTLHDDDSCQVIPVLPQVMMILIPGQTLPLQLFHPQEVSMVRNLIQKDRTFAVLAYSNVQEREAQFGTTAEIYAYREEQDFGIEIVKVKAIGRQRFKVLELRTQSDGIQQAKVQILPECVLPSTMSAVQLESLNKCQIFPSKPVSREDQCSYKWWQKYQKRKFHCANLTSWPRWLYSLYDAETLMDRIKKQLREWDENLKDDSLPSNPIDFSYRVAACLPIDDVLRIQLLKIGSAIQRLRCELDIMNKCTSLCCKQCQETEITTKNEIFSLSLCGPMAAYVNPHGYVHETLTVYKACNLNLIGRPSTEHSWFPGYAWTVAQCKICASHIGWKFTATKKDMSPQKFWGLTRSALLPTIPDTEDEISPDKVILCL
- run.description: Androgen Receptor (AR) protein degradation assay in LNCaP cells, western blotting
- Type: cell-based
- condition.context: 20 h, 1 μM compound

molecule | inhibition at 1 µM (%)
C[C@H]1CN(CC2CCN(c3ccc(C(=O)NC4CCC(=O)NC4=O)nc3)CC2)CCN1CC1CCN(c2ccc(NC(=O)C3CCN(c4ccc(C#N)c(C(F)(F)F)c4)CC3)nc2)CC1 (some centres unmarked) [Example 109] | 83
N#Cc1ccc(N2CCC(C(=O)Nc3ccc(CCN4CCC(Oc5ccc6c(c5)C(=O)N(C5CCC(=O)NC5=O)C6=O)CC4)cn3)CC2)cc1C(F)(F)F (centres unmarked) [Example 167] | 85
N#Cc1ccc(N2CCC(C(=O)Nc3ccc(N4CC5(CCN(CC6CN(c7ccc8c(c7)C(=O)N(C7CCC(=O)NC7=O)C8=O)C6)CC5)C4)cn3)CC2)cc1C(F)(F)F (centres unmarked) [Example 123] | 97
N#Cc1ncc(N2CCC(C(=O)Nc3ccc(N4CCC(CN5CCN(CC6CCN(c7ccc8c(c7)CN(C7CCC(=O)NC7=O)C8=O)CC6)CC5)CC4)cn3)CC2)cc1C(F)(F)F (centres unmarked) [Example 145] | 88
N#Cc1ccc(N2CCC(C(=O)Nc3ccc(N4CCC(CN5CC6(CCN(c7ccc8c(c7)C(=O)N(C7CCC(=O)NC7=O)C8=O)CC6)C5)CC4)nc3)CC2)cc1C(F)(F)F (centres unmarked) [Example 59] | 47
N#Cc1ccc(N2CCC(C(=O)Nc3ccc(N4CCC(CN5CCN(C6CCN(c7ccc8c(n7)CN(C7CCC(=O)NC7=O)C8=O)CC6)CC5)CC4)cn3)CC2)cc1C(F)(F)F (centres unmarked) [Example 75] | 90
N#Cc1ccc(N2CCC(C(=O)Nc3ccc(N4CCN(C(=O)CCCCCNc5ccc6c(c5)C(=O)N(C5CCC(=O)NC5=O)C6=O)CC4)cn3)CC2)cc1Cl (centres unmarked) [Example 112] | 50
N#Cc1ccc(N2CCC(C(=O)Nc3ccc(N4CC5(CCN(C[C@@H]6CCN(c7ccc8c(c7)C(=O)N(C7CCC(=O)NC7=O)C8=O)C6)CC5)C4)cn3)CC2)cc1C(F)(F)F (some centres unmarked) [Example 126] | 96
N#Cc1ccc(N2CCC(C(=O)Nc3ncc(N4CCC(CN5CCN(C[C@H]6CCN(c7ccc8c(c7)C(=O)N(C7CCC(=O)NC7=O)C8=O)C6)CC5)CC4)cn3)CC2)cc1C(F)(F)F (some centres unmarked) [Example 158] | 65
N#Cc1ccc(N2CCC(C(=O)Nc3ccc(N4CCC(CN5CCN(C6CCN(c7cccc8c7C(=O)N(C7CCC(=O)NC7=O)C8=O)CC6)CC5)CC4)cn3)CC2)cc1C(F)(F)F (centres unmarked) [Example 76] | 88
N#Cc1ccc(N2CCC(C(=O)Nc3ccc(N4CCC(O)(CCN5CCN(c6ccc7c(c6)C(=O)N(C6CCC(=O)NC6=O)C7=O)CC5)CC4)cn3)CC2)cc1C(F)(F)F (centres unmarked) [Example 153] | 97

====

Recorded measurements of inhibition at 1 µM, one per entry
- tgt: Androgen Receptor (AR) protein (Homo sapiens, UniProt P10275, T878A)
- Construct: endogenous in cells; host or cells: LNCaP
- run.description: Androgen Receptor (AR) protein degradation assay in LNCaP cells, western blotting
- Type: cell-based
- condition.context: 20 h, 1 μM compound

compound | unit.symbol | inhibition at 1 µM
N#Cc1ccc(N2CCC(C(=O)Nc3ccc(N4CCC(CCN5CC(N6CCN(c7ccc8c(n7)CN(C7CCC(=O)NC7=O)C8=O)CC6)C5)CC4)cn3)CC2)cc1C(F)(F)F (stereo not drawn) | % | 76
N#Cc1ccc(N2CCC(C(=O)Nc3ccc(N4CCN(CCOC5CCN(c6ccc7c(c6)C(=O)N(C6CCC(=O)NC6=O)C7=O)CC5)CC4)cn3)CC2)cc1Cl (stereo not drawn) | % | 88
N#Cc1ccc(N2CCC(C(=O)Nc3ccc(C#CCN4CC5(CCN(c6ccc7c(c6)C(=O)N(C6CCC(=O)NC6=O)C7=O)CC5)C4)cn3)CC2)cc1C(F)(F)F (stereo not drawn) | % | 96
